# testMethodNotes: Pharmacokinetic study, single dose IP or oral gavage
# Type: in vivo, C57Bl/6 male mice
# conditionParameters: male, C57Bl/6, mouse, 20 mg/kg PO, plasma, mean ± SD
# Experimental: To evaluate the pharmacokinetic (PK) profile of M-I, a single dose (20 mg/kg) was given to C57Bl/6 male mice by either intraperitoneal injection (IP group; n = 3) or oral ga-vage (oral group; n = 3). A dose of 20 mg/kg was chosen based on previous publications. […] The pharmacokinetic (PK) study of M-I was performed in male C57Bl/6 mice. […] M-I concentration was determined using liq-uid chromatography-mass spectrometry/mass spectrometry (LC-MS/MS) as described earlier.
propertyName: AUC(0-t) (ng·h/mL)
Entry rule: numbers only, all in ng·h/mL.

What does the data say about its AUC(0-t)? Entry: CC(C)=CC(O)CC(C)[C@H]1CC[C@@]2(C)[C@@H]3[C@@H](O)C=C4[C@@H](CC[C@H](O)C4(C)C)[C@]3(C=O)CC[C@]12C (stereo partly shown) 643

----------
# testMethodNotes: Pharmacokinetic study, single dose IP or oral gavage
# Type: in vivo, C57Bl/6 male mice
# conditionParameters: male, C57Bl/6, mouse, 20 mg/kg IP, plasma, mean ± SD, read-out: AUCINF_obs (converted)
propertyName: AUC(0-inf) (ng·h/mL)
Entry rule: numbers only, all in ng·h/mL.

What does the data say about its AUC(0-inf)? Entry: CC(C)=CC(O)CC(C)[C@H]1CC[C@@]2(C)[C@@H]3[C@@H](O)C=C4[C@@H](CC[C@H](O)C4(C)C)[C@]3(C=O)CC[C@]12C (stereo partly shown) 12800

----------
# testMethodNotes: Pharmacokinetic study, single dose IP or oral gavage
# Assay type: in vivo, C57Bl/6 male mice
# conditionParameters: male, C57Bl/6, mouse, 20 mg/kg IP, plasma, mean ± SD
# Description: To evaluate the pharmacokinetic (PK) profile of M-I, a single dose (20 mg/kg) was given to C57Bl/6 male mice by either intraperitoneal injection (IP group; n = 3) or oral ga-vage (oral group; n = 3). A dose of 20 mg/kg was chosen based on previous publications. […] The pharmacokinetic (PK) study of M-I was performed in male C57Bl/6 mice. […] M-I concentration was determined using liq-uid chromatography-mass spectrometry/mass spectrometry (LC-MS/MS) as described earlier.
propertyName: AUC(0-t) (µg·h/mL)
Entry rule: numbers only, all in µg·h/mL.

What does the data say about its AUC(0-t)? Entry: CC(C)=CC(O)CC(C)[C@H]1CC[C@@]2(C)[C@@H]3[C@@H](O)C=C4[C@@H](CC[C@H](O)C4(C)C)[C@]3(C=O)CC[C@]12C (stereo partly shown) 12.7
